Sourced from patent US8937058B2

Measurement record for progesterone receptor (Homo sapiens (Human)); quantity recorded: IC50.
The reply should contain only the number, in nM.

Solved cases (4 shown):
                                   compound                              assay_system  measured_value
0  CC[C@]12CC[C@H]3[C@@H](CCC4=CC(=O)CC[C@@H]43)[C@@H]1CC[C@@]21C=CC(=O)O1 (stereo in doubt)  progesterone receptor (Homo sapiens (Human))              45
1  C[C@]12CC[C@H]3[C@@H](CCC4=CC(=O)CC[C@@H]43)[C@@H]1CC1(CC1)[C@@]21C=CC(=O)O1 (stereo in doubt)  progesterone receptor (Homo sapiens (Human))             110
2  CC[C@]12CC[C@H]3[C@@H](CCC4=C(Cl)C(=O)CC[C@@H]43)[C@@H]1CC[C@@]21C=CC(=O)O1  progesterone receptor (Homo sapiens (Human))             750
3  C=C[C@@H]1CC2=CC(=O)CC[C@@H]2[C@H]2CC[C@@]3(CC)[C@@H](CC[C@@]34C=CC(=O)O4)[C@@H]21 (stereo in doubt) [Example 10A]  progesterone receptor (Homo sapiens (Human))             450

In: Return reported IC50; argument: CC[C@]12CC[C@H]3[C@@H]([C@H](C)CC4=CC(=O)CC[C@@H]43)[C@@H]1CC[C@@]21C=CC(=O)O1 (stereo in doubt)
Out: 160

In: Return reported IC50; argument: CC[C@@H]1CC2=CC(=O)CC[C@@H]2[C@H]2CC[C@@]3(CC)[C@@H](CC[C@@]34C=CC(=O)O4)[C@H]12 (stereo in doubt)
Out: 670

In: Return reported IC50; argument: CC[C@@H]1CC2=CC(=O)CC[C@@H]2[C@H]2CC[C@@]3(C)[C@@H](CC[C@@]34C=CC(=O)O4)[C@H]12 (stereo in doubt)
Out: 1300

###

# assay.system: androgen receptor (Homo sapiens (Human), UniProt P10275)
# Sequence (P10275 whole entry, species assumed): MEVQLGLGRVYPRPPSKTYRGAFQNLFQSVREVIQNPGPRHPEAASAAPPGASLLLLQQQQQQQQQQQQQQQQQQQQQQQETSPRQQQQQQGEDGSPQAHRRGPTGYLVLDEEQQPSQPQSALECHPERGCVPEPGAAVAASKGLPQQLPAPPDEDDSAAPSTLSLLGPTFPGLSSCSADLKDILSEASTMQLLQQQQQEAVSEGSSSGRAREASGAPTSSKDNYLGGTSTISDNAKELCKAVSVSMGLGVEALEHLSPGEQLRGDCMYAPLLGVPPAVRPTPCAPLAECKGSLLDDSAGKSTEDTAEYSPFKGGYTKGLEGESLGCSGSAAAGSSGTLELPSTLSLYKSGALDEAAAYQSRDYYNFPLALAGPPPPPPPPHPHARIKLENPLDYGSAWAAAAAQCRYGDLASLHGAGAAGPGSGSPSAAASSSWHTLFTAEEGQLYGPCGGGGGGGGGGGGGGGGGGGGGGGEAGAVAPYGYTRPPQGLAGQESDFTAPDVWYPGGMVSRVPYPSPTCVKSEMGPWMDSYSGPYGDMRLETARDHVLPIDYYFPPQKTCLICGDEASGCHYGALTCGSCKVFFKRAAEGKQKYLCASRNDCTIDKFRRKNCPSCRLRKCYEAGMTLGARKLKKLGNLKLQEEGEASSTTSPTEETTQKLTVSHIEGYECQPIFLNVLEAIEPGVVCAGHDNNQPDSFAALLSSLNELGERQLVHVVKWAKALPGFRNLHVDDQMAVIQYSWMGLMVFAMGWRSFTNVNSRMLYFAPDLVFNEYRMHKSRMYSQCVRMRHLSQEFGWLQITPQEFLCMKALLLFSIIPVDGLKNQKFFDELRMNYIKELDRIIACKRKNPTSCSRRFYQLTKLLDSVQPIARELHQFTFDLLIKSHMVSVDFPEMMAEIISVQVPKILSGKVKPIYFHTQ
# protocol.details: cell-based
# condition.context: in-vitro transactivation, PC3 cells
recorded.endpoint: Androgen receptor Agonism efficacy (%)
The reply should contain only the number, in %.

>>> df
                                   compound                   recorded_endpoint  measured_value
0  CC[C@@H]1CC2=CC(=O)CC[C@@H]2[C@H]2CC[C@@]3(CC)[C@@H](CC[C@@]34C=CC(=O)O4)[C@H]12 (stereo in doubt)  Androgen receptor Agonism efficacy           63.33

In: Return reported Androgen receptor Agonism efficacy; argument: CC[C@]12CC[C@H]3[C@@H](CCC4=CC(=O)CC[C@@H]43)[C@@H]1CC[C@@]21C=CC(=O)O1 (stereo in doubt)
Out: 59.8

In: Return reported Androgen receptor Agonism efficacy; argument: "CC[C@]12CC[C@H]3[C@@H](CC4(CC4)C4=CC(=O)CC[C@@H]43)[C@@H]1CC[C@@]21C=CC(=O)O1"
Out: 91.19

In: Return reported Androgen receptor Agonism efficacy; argument: "CC[C@]12CC[C@H]3[C@@H](CCC4=C(Cl)C(=O)CC[C@@H]43)[C@@H]1CC[C@@]21C=CC(=O)O1"
Out: 33.71

In: Return reported Androgen receptor Agonism efficacy; argument: C=C[C@@H]1CC2=CC(=O)CC[C@@H]2[C@H]2CC[C@@]3(C)[C@@H](CC[C@@]34C=CC(=O)O4)[C@@H]21 (stereo in doubt)
Out: 53.6

###

Reported Androgen receptor Antagonism efficacy values for a set of compounds
# assay.system: androgen receptor (Homo sapiens (Human))
# protocol.details: cell-based
# condition.context: in-vitro transactivation, PC3 cells, 0.05 nM R1881
The reply should contain only the number, in %.

Solved cases (10 shown):
>>> df
                                   compound                              assay_system                      recorded_endpoint  measured_value
0  CC[C@]12CC[C@H]3[C@@H](CC4(CC4)C4=CC(=O)CC[C@@H]43)[C@@H]1CC[C@@]21C=CC(=O)O1  androgen receptor (Homo sapiens (Human))  Androgen receptor Antagonism efficacy               5
1  C[C@]12CC[C@H]3[C@@H](CCC4=CC(=O)CC[C@@H]43)[C@@H]1CC1(CC1)[C@@]21C=CC(=O)O1 (stereo in doubt)  androgen receptor (Homo sapiens (Human))  Androgen receptor Antagonism efficacy               5
2  CC[C@]12CC[C@H]3[C@@H](C=CC4=CC(=O)CC[C@@H]43)[C@@H]1CC[C@@]21C=CC(=O)O1 (stereo in doubt)  androgen receptor (Homo sapiens (Human))  Androgen receptor Antagonism efficacy           59.23
3  C[C@]12CC[C@H]3[C@@H]([C@H](C4CC4)CC4=CC(=O)CC[C@@H]43)[C@@H]1CC[C@@]21C=CC(=O)O1 (stereo in doubt) [Example 12A]  androgen receptor (Homo sapiens (Human))  Androgen receptor Antagonism efficacy           69.75
4  CC[C@]12CC[C@H]3[C@@H]([C@H](C)CC4=CC(=O)CC[C@@H]43)[C@@H]1CC[C@@]21C=CC(=O)O1 (stereo in doubt)  androgen receptor (Homo sapiens (Human))  Androgen receptor Antagonism efficacy               5
5  CC[C@]12CC[C@H]3[C@@H]([C@H](C4CC4)CC4=CC(=O)CC[C@@H]43)[C@@H]1CC[C@@]21C=CC(=O)O1 (stereo in doubt) [Example 11A]  androgen receptor (Homo sapiens (Human))  Androgen receptor Antagonism efficacy           34.45
6  CC[C@@H]1CC2=CC(=O)CC[C@@H]2[C@H]2CC[C@@]3(CC)[C@@H](CC[C@@]34C=CC(=O)O4)[C@H]12 (stereo in doubt)  androgen receptor (Homo sapiens (Human))  Androgen receptor Antagonism efficacy               5
7  CC[C@]12CC[C@H]3[C@@H](CCC4=C(Cl)C(=O)CC[C@@H]43)[C@@H]1CC[C@@]21C=CC(=O)O1  androgen receptor (Homo sapiens (Human))  Androgen receptor Antagonism efficacy           44.18
8  C=C[C@@H]1CC2=CC(=O)CC[C@@H]2[C@H]2CC[C@@]3(CC)[C@@H](CC[C@@]34C=CC(=O)O4)[C@@H]21 (stereo in doubt) [Example 10A]  androgen receptor (Homo sapiens (Human))  Androgen receptor Antagonism efficacy               5
9  C[C@]12CC[C@H]3[C@@H](CCC4=C(Cl)C(=O)CC[C@@H]43)[C@@H]1CC[C@@]21C=CC(=O)O1  androgen receptor (Homo sapiens (Human))  Androgen receptor Antagonism efficacy           63.26

In: Return reported Androgen receptor Antagonism efficacy; argument: "CC[C@]12CC[C@H]3[C@@H](C[C@@H](CO)C4=CC(=O)CC[C@@H]43)[C@@H]1CC[C@@]21C=CC(=O)O1"
Out: 5

In: Return reported Androgen receptor Antagonism efficacy; argument: C[C@]12CC[C@H]3[C@@H](C=CC4=CC(=O)CC[C@@H]43)[C@@H]1CC[C@@]21C=CC(=O)O1 (stereo in doubt)
Out: 5

In: Return reported Androgen receptor Antagonism efficacy; argument: CC[C@@H]1CC2=CC(=O)CC[C@@H]2[C@H]2CC[C@@]3(C)[C@@H](CC[C@@]34C=CC(=O)O4)[C@H]12 (stereo in doubt)
Out: 41.26

###

# assay.system: UniProt P08235
# Sequence (P08235 whole entry): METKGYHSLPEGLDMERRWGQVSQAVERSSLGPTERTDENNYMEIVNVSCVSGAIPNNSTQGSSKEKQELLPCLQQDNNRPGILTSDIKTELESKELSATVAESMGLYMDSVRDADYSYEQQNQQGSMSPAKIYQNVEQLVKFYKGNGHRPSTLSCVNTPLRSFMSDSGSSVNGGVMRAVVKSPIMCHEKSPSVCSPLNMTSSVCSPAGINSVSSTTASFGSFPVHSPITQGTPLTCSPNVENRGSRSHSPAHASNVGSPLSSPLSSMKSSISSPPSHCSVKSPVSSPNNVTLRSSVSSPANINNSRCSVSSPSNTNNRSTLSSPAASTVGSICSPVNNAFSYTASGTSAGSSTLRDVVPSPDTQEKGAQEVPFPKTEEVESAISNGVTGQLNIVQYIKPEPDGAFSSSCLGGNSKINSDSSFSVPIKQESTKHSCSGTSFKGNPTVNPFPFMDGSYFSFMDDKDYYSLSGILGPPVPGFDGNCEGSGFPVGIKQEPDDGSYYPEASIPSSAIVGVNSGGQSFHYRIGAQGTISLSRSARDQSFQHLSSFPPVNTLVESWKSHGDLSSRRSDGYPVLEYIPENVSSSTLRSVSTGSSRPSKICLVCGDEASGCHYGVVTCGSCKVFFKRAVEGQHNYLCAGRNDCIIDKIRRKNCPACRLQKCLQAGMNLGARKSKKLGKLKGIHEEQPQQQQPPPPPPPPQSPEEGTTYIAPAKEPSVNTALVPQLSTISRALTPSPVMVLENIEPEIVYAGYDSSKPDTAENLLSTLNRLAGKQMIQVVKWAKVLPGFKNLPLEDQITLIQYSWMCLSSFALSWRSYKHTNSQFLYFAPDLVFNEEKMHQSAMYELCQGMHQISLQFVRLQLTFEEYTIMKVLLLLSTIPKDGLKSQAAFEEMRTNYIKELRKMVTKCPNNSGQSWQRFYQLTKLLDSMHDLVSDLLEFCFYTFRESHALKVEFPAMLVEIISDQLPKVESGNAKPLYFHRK
# protocol.details: Mineralocorticoid receptor binding test (displacement of 3H-aldosterone, cytosol from Hi5 insect cells)
# condition.context: reference substance 3H-aldosterone
recorded.endpoint: Mineralocorticoid receptor (MR) Competition factor
// response body must contain only the number

Solved cases (4 shown):
>>> print(df.to_string())
                                   molecule    assay_system  measured_value
0  C=C[C@@H]1CC2=CC(=O)CC[C@@H]2[C@H]2CC[C@@]3(CC)[C@@H](CC[C@@]34C=CC(=O)O4)[C@@H]21 (stereo in doubt) [Example 10A]  UniProt P08235             5.1
1  CC[C@]12CC[C@H]3[C@@H]([C@H](C4CC4)CC4=CC(=O)CC[C@@H]43)[C@@H]1CC[C@@]21C=CC(=O)O1 (stereo in doubt) [Example 11A]  UniProt P08235             2.4
2  CC[C@]12CC[C@H]3[C@@H]([C@H](C)CC4=CC(=O)CC[C@@H]43)[C@@H]1CC[C@@]21C=CC(=O)O1 (stereo in doubt)  UniProt P08235             1.0
3  C[C@]12CC[C@H]3[C@@H]([C@H](C4CC4)CC4=CC(=O)CC[C@@H]43)[C@@H]1CC[C@@]21C=CC(=O)O1 (stereo in doubt) [Example 12A]  UniProt P08235            12.1

In the following, a different molecule is considered.
In: Return reported Mineralocorticoid receptor (MR) Competition factor; argument: C=C[C@@H]1CC2=CC(=O)CC[C@@H]2[C@H]2CC[C@@]3(C)[C@@H](CC[C@@]34C=CC(=O)O4)[C@@H]21 (stereo in doubt)
Out: 18.7
